biological target: UniProt P43235; experiment: Inhibition Assay; conditions: pH 5.5
Sequence (P43235 whole entry): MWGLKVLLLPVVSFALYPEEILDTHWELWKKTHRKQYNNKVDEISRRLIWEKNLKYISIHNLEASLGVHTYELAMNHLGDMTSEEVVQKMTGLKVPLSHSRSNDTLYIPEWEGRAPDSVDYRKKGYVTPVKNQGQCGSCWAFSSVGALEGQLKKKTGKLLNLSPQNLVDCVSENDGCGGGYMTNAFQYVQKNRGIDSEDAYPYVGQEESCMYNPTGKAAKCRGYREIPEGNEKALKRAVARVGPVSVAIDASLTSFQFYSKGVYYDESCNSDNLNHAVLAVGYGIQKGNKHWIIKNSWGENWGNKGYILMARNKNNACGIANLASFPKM
endpoint: Ki (nM)

Please review the entries below; each comes with its answer.
Lab note: COc1ccc(C(=O)N[C@@H](Cc2ccccc2)C(=O)NC(C)C(=O)CNC(=O)Cc2cccc(-c3ccccn3)c2)cc1OC (some centres not stated) [Cathepsin Inhibitor, Column 3 Row 2] gave Ki of 25

Form: compound = COc1ccc(C(=O)N[C@@H](CC(C)C)C(=O)NC(C)C(=O)CNC(=O)Cc2cccc(-c3ccccn3)c2)cc1OC (some centres not stated) [Cathepsin Inhibitor, Column 3 Row 1] ; Ki = 7.4

// Ki value for CC(NC(=O)[C@H](Cc1ccccc1)NC(=O)c1cc2ccccc2s1)C(=O)CNC(=O)Cc1cccc(-c2ccccn2)c1 (some centres not stated) [Cathepsin Inhibitor, Column 6 Row 2] : 16

The recorded Ki for CC(C)C[C@H](NC(=O)c1ccc2ccccc2n1)C(=O)NC(C)C(=O)CNC(=O)Cc1cccc(-c2ccccn2)c1 (some centres not stated) [Cathepsin Inhibitor, Column 5 Row 1] is 1.7

1: CC(NC(=O)[C@@H](NC(=O)c1ccc2ccccc2n1)C(C)C)C(=O)CNC(=O)Cc1cccc(-c2ccccn2)c1 (some centres not stated) [Cathepsin Inhibitor, Column 5 Row 3]
2: CC(C)C[C@H](NC(=O)c1ccc2ncccc2c1)C(=O)NC(C)C(=O)CNC(=O)Cc1cccc(-c2ccccn2)c1 (some centres not stated) [Cathepsin Inhibitor, Column 4 Row 1]
Asked: Would you kindly point out which of 1 and 2 has the smaller Ki figure? Return value: the label identifying the chosen record.
Given back: 2
(2: 18 nM, 1: 830 nM)
